Entries and their Ki values follow.
- system: Alpha-1A adrenergic receptor (Homo sapiens, UniProt P35348)
- Sequence (P35348 whole entry): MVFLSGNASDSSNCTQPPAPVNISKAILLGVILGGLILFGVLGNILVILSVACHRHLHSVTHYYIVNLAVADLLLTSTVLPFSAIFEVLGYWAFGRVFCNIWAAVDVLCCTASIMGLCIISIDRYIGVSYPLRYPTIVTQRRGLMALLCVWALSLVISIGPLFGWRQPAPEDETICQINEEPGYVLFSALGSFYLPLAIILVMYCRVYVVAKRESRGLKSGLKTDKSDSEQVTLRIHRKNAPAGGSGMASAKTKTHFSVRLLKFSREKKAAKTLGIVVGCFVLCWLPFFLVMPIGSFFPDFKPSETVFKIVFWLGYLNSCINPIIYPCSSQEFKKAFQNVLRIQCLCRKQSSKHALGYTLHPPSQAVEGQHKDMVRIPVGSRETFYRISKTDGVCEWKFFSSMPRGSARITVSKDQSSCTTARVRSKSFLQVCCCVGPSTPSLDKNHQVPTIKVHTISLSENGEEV
- test-method-notes: Binding constant measured against Alpha-1A adrenergic receptor in human prostate; +++:highly active
- Type: tissue-based, Prostate gland
measurement-kind: Ki (nM)

| compound | u | numeric-result |
| --- | --- | --- |
| C[C@H](Cc1cc2c(c(C(N)=O)c1)N(CCCO)CC2)NCCOc1ccccc1OCC(F)(F)F [SILODOSIN] | nM | 0.036 |
| CC(C)Oc1ccccc1N1CCN(CCCNC(=O)CN2CCCCC2=O)CC1 [RWJ-69736] | nM | 0.65 |
| COCC1=C(C(=O)OC)[C@H](c2ccc(F)c(F)c2)N(C(=O)NCCCN2CCC(c3ccccn3)CC2)C(=O)N1 | nM | 0.36 |
| CC(C)(Cc1c[nH]c2ccc(Cl)cc12)NCCOc1ccccc1OCC1CC1 | nM | 0.6 |
| COc1cccc(OC)c1OCCNC[C@H]1CSc2ccccc2O1 | nM | 0.2 |
| COc1cccc(OC)c1OCCNC[C@@H]1Oc2ccccc2O[C@H]1c1ccc(C)cc1 | nM | 0.35 |
